Listed compounds paired with reported Vd
# Measurement Protocol: Volume of distribution at steady state in Sprague-Dawley rat at 3 mg/kg, iv measured upto 24 hrs by HPLC/UV analysis
# Format: ADME, organism-based
# Assay Context: in vivo, read-out: Vdss
Give the value in L/kg but do not write L/kg after it.

Reference set (2 entries):
• Nc1nccc(Oc2ccc3c(C(=O)Nc4ccc(F)c(C(F)(F)F)c4)cccc3c2)n1 = 3.5
• Nc1cc(Oc2ccc3c(C(=O)Nc4ccc(F)c(C(F)(F)F)c4)cccc3c2)ncn1 = 1.5

Query compound follows.
The value of Vd measured for the compound Nc1cc(Oc2ccc3c(C(=O)Nc4cccc(C(F)(F)F)c4)cccc3c2)ncn1 turned out to be 0.9

====

Listed compounds paired with reported pIC50
# Target Or Test System: UniProt P04626
# Sequence (P04626 whole entry): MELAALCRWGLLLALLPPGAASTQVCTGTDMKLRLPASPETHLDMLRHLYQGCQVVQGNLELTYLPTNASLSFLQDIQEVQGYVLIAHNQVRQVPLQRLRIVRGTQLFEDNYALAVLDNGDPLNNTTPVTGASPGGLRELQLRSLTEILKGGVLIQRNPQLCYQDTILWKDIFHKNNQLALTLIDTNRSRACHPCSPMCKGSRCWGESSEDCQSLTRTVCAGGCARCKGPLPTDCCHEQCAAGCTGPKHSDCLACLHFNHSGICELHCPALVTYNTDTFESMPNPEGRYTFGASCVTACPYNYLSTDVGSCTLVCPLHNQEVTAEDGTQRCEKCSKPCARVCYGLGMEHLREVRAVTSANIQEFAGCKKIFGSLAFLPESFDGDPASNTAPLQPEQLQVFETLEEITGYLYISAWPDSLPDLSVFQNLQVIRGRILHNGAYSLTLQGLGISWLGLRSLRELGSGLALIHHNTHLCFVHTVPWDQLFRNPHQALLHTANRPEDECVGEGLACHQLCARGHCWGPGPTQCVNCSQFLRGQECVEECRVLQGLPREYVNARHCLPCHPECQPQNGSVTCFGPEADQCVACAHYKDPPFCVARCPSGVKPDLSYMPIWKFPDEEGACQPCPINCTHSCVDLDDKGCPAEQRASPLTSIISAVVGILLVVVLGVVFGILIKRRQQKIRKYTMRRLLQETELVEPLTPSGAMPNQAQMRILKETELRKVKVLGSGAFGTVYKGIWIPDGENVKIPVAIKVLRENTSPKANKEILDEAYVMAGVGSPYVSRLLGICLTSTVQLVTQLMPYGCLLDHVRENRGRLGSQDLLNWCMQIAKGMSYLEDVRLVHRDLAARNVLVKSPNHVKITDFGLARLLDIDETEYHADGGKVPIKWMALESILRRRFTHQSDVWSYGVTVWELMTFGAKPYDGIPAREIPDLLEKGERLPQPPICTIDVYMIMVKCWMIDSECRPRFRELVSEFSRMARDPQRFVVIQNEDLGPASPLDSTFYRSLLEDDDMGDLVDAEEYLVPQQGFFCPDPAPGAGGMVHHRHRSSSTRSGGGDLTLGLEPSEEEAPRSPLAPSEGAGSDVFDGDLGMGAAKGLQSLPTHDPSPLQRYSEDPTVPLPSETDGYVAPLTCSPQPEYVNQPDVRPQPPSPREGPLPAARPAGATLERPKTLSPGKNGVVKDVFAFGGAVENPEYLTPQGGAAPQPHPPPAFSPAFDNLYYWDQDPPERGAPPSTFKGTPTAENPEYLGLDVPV
# Measurement Protocol: Inhibition of ERBB2 (unknown origin) autophosphorylation expressed in human BT-474 cells by ELISA-based assay
pIC50: −log10 of the molar value.

- Nc1nccc(Oc2ccc3c(C(=O)Nc4cccc(C(F)(F)F)c4)cccc3c2)n1: < 6.30

Query compound follows.
The value of pIC50 measured for the compound O=C(Nc1cccc(C(F)(F)F)c1)c1cccc2cc(Oc3cc(CO)ncn3)ccc12 [BFH-772] turned out to be < 6.30

====

Listed compounds paired with reported pIC50
# System: BaF3
# Measurement Protocol: Antiproliferative activity against mouse BaF3 cells expressing Tel-KDR-myc1.3 assessed as cell growth inhibition measured after 72 hrs by Alamar Blue assay
# Assay Context: BaF3, 72 h
In simple prose, pIC50 is minus the logarithm base ten of a concentration in moles per litre.

* O=C(Nc1cccc(C(F)(F)F)c1)c1cccc2cc(Oc3cc(CO)ncn3)ccc12 | 8.70
* Nc1cc(Oc2ccc3c(C(=O)Nc4cccc(C(F)(F)F)c4)cccc3c2)ncn1 | 8.70
* Nc1cc(Oc2ccc3c(C(=O)Nc4ccc(F)c(C(F)(F)F)c4)cccc3c2)ncn1 | 8.30
* Nc1nccc(Oc2ccc3c(C(=O)Nc4ccc(F)c(C(F)(F)F)c4)cccc3c2)n1 | 8.05

Query compound follows.
The value of pIC50 measured for the compound Nc1nccc(Oc2ccc3c(C(=O)Nc4cccc(C(F)(F)F)c4)cccc3c2)n1 turned out to be 8.40

====

# Measurement Protocol: Clearance in OFA rat at 2.5 mg/kg, iv measured upto 24 hrs by HPLC/UV analysis
# Assay type: ADME, organism-based
# Assay Context: in vivo
Property Label: clearance (mL/min/kg)
Give the value in mL/min/kg but do not write mL/min/kg after it.

The value of clearance measured for the molecule Nc1nccc(Oc2ccc3c(C(=O)Nc4cccc(C(F)(F)F)c4)cccc3c2)n1 turned out to be 11

====

# Tested on: HUVEC
# Measurement Protocol: Antiproliferative activity against VEGF-stimulated HUVEC cells assessed as cell growth inhibition measured after 24 hrs by BrdUrd incorporation based spectrophotometric analysis
# Assay Context: Homo sapiens
Listed molecules paired with reported pIC50
In simple prose, pIC50 is minus the logarithm base ten of a concentration in moles per litre.

• Nc1cc(Oc2ccc3c(C(=O)Nc4cccc(C(F)(F)F)c4)cccc3c2)ncn1 = 8.77

Query molecule follows.
The value of pIC50 measured for the molecule Nc1nccc(Oc2ccc3c(C(=O)Nc4cccc(C(F)(F)F)c4)cccc3c2)n1 turned out to be 9.92

====

# Target Or Test System: Vascular endothelial growth factor receptor 3 (Homo sapiens)
# Sequence (P35916 whole entry, the tested form may be a part): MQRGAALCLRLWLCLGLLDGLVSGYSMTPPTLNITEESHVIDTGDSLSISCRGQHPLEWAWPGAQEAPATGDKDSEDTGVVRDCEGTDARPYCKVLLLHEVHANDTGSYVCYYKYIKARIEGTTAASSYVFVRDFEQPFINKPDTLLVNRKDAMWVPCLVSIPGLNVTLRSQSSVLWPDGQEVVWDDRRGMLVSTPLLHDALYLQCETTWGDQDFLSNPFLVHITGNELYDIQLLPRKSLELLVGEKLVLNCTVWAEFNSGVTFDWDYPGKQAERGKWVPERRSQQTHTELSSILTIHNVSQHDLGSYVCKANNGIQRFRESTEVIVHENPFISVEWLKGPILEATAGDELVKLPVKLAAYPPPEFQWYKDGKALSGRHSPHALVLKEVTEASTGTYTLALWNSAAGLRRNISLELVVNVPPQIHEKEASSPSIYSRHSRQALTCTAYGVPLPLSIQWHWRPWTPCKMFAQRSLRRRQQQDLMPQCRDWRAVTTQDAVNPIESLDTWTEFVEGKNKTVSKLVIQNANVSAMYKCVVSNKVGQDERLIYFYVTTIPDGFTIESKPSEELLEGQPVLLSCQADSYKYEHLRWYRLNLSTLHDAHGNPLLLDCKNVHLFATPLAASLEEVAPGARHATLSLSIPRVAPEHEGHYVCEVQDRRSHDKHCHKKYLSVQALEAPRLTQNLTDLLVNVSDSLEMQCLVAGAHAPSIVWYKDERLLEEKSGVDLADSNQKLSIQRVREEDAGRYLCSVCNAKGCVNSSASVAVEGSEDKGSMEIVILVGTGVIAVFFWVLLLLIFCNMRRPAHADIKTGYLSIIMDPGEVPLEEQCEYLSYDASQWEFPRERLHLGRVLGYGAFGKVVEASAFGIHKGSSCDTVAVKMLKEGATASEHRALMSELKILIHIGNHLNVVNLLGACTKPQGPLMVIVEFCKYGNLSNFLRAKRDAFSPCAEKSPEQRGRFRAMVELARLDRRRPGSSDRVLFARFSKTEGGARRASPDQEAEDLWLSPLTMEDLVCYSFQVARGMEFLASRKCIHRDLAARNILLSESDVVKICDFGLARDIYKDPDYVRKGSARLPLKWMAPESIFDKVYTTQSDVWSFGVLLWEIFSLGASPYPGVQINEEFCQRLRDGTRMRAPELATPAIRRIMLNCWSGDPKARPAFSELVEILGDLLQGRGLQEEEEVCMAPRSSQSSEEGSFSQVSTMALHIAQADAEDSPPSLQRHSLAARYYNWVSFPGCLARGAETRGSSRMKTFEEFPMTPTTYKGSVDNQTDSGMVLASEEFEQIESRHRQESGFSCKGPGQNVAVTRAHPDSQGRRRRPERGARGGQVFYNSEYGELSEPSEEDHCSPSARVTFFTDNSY
# Measurement Protocol: Inhibition of human recombinant GST-fused VEGFR3 kinase domain transphosphorylation expressed in baculovirus expression system using poly-Glu-Tyr (4:1) as substrate measured after 10 mins in presence of gamma-[33P]-ATP by scintillation counting analysis
Listed compounds paired with reported pIC50
In simple prose, pIC50 is minus the logarithm base ten of a concentration in moles per litre.

The value of pIC50 measured for the compound Nc1nccc(Oc2ccc3c(C(=O)Nc4ccc(F)c(C(F)(F)F)c4)cccc3c2)n1 turned out to be 6.75

The value of pIC50 measured for the compound Nc1nccc(Oc2ccc3c(C(=O)Nc4cccc(C(F)(F)F)c4)cccc3c2)n1 turned out to be 6.38

The value of pIC50 measured for the compound O=C(Nc1cccc(C(F)(F)F)c1)c1cccc2cc(Oc3cc(CO)ncn3)ccc12 turned out to be 5.96

The value of pIC50 measured for the compound Nc1cc(Oc2ccc3c(C(=O)Nc4ccc(F)c(C(F)(F)F)c4)cccc3c2)ncn1 turned out to be 6.63

The value of pIC50 measured for the compound Nc1cc(Oc2ccc3c(C(=O)Nc4cccc(C(F)(F)F)c4)cccc3c2)ncn1 turned out to be 7.30

Measured values drawn from ChEMBL document CHEMBL5252510 for this set.
